Known GI50 of a selection of compounds
test system: BT-549; assay: NCI tumour cell line growth inhibition, 48 h
Active and inactive are the calls of the source. Cut-off read from the data, not from the text of the source: active = GI50 up to about 1.1 µM and inactive = higher.

Compound	GI50
COc1ccc(OC)c(Cc2cnc3nc(N)nc(N)c3c2C)c1 [PIRITREXIM ISETHIONATE]	13.4 µM (inactive)
O=C(c1ccco1)N(Cc1ccco1)C(=S)Nc1ccccc1	17.2 µM (inactive)
C=CC1(CC/C(=C\[N+](=O)[O-])c2ccc(OC)c(OC)c2)OCC(C)(C)CO1	13.8 µM (inactive)

Fill in: BT-549 GI50 for COc1ccc(/C=C2\CCC(C)(CN(C)C)C2=O)cc1Br (stereo not drawn) = 16 µM (inactive)

Value (GI50, BT-549) for record CN1N=C(c2ccccc2)C(C(c2ccccc2[N+](=O)[O-])C2C(=O)N(C)N=C2c2ccccc2)C1=O (stereo not drawn) = 63.4 µM (inactive)

GI50 for BT-549 with input CC(CCC(=O)O)C(=O)O (stereo not drawn) equals > 100 µM (inactive)

Measured on BT-549, `CC1=CC(=O)N(n2c(Cc3ccc(Cl)cc3)n[nH]c2=O)C1=O` has a documented GI50 of 35.3 µM (inactive)

Record `CCOC(=O)c1c(N2CCOCC2)[nH]c(=O)c(C(c2ccc(N(C)C)cc2)c2c(O)c(C(=O)OCC)c(N3CCOCC3)[nH]c2=O)c1O` ; system BT-549; GI50 = > 100 µM (inactive)

# lookup: N#Cc1ccccc1NC(=O)/C(=N\NC(=O)c1ccncc1)C(c1cnc2ccc([N+](=O)[O-])cc2n1)[N+](=O)[O-] (stereo not drawn) on BT-549, GI50 = > 100 µM (inactive)

Per the reported BT-549 data, `O=S(=O)(O)CCCC1S(=O)(=O)OCCOS1(=O)=O` has GI50 of > 100 µM (inactive)

Sample CN1CC(S(=O)(=O)c2ccccc2)CC(S(=O)(=O)c2ccccc2)C1c1ccccc1 (stereo not drawn) , system: BT-549. Its GI50 is 11.7 µM (inactive)
